Ref: patent US6121241A

# experimental system: UniProt:P00749
# procedure text: Fibrin-plate method, plasmin formation induced by urokinase
# details: fibrin-plate method; hydrolyzed area reduced by 50%
Here, each record is paired with measured pIC50 data.
pIC50 field: float, defined as -log10 of concentration (mol/L).

Some solved entries appear below for comparison.
N=C(N)NCCC[C@@H](C=O)NC(=O)[C@H]1CCCN1C(=O)C(O)C1CCCCCC1.N=C(N)NCCC[C@@H](C=O)NC(=O)[C@H]1CCCN1C(=O)C(O)C1CCCCCC1.O=S(=O)(O)O (stereo partly shown): 3.92
N=C(N)NCCC[C@@H](C=O)NC(=O)[C@H]1CCCN1C(=O)C(O)C1CCCC1.N=C(N)NCCC[C@@H](C=O)NC(=O)[C@H]1CCCN1C(=O)C(O)C1CCCC1.O=S(=O)(O)O (stereo partly shown): 3.86
CN[C@H](Cc1ccccc1)C(=O)N1CCC[C@H]1C(=O)N[C@H](C=O)CCCNC(=N)N: 4.09

Recorded pIC50 for `CC(C)(C)OC(=O)N[C@H](Cc1ccccc1)C(=O)N1CCC[C@H]1C(=O)N[C@H](C=O)CCCNC(=N)N` with UniProt:P00749, please?
5.52
